# assay.explanation: folding enthalpy; higher = less favourable; fluorescence melt of hairpins on a sequencing array, two-state fit
# condition: sodium 0.088 M
quantity: folding enthalpy (kcal/mol)
Answer with a number only, understood to be in kcal/mol.

The sequence GGACGGCGAAAGCCTCC (((.(((....)))))) showed folding enthalpy equal to -16.4

Sample GCATCGCGAAAGCACTGC (((..((....))..))) ; folding enthalpy observed: -14.7

In plain terms, GCGCGCCCGAAAGGGCGC (((..(((....)))))) has a documented folding enthalpy of -4.64

The recorded folding enthalpy for entry GGTTGTCGAAAGACTACC (((.(((....))).))) equals -46

Please fill in: folding enthalpy reported for GATCACAAGAGTGATC ((((((....)))))) = -33.1

So, GCGACCATTCGC ((((....)))) ? Its folding enthalpy was -24.4

---

# assay.explanation: melting temperature; fluorescence melt of hairpins on a sequencing array, two-state fit, raised by 9.35 °C to match UV melts
# condition: sodium 0.088 M
quantity: Tm (°C)
# number only, unit °C dropped from output

Please fill in: Tm reported for GACATGAAAATGTC (((((....))))) = 50.4

What the record says about GATCAGCTCCTGATC ((((((...)))))) : Tm is 50

The measured Tm associated with GATCAGTTCCTGATC ((((((...)))))) reads 50.9

Consider GACGTCGGAAACGACGCC (.(((((....))))).) . Its measured Tm is 50.7

In plain terms, GCGACGGTCGC ((((...)))) has a documented Tm of 48.7

Lab note: GGTATGGGAAACCATGCC ((.((((....)))).)) gave Tm of 51.3

---

# assay.explanation: melting temperature; fluorescence melt of hairpins on a sequencing array, two-state fit, raised by 9.35 °C to match UV melts
# condition: sodium 0.088 M
quantity: Tm (°C)
Supply the numeric figure in °C, leaving out any unit text.

Recorded Tm (sequence GATCTCTCCGGAGATC ((((((....)))))) ): 56.2

Tm reading for GGCAACCGAAAGGTCGCC (((.(((....))).))) : 58.9

Given item CGCGGAAGCTCCGCG ((((((...)))))) , the value recorded as its Tm is 68.8

For GAGCTTGGAAACGAGCTC (((((.(....).))))) the sequence record lists Tm as 53.4

get_value(item= GCAAAAGGAAACTCTTGC ((((.((....)).)))) , readout=Tm) returns 27.4

Looking up CGACAGAAATGTCG (((((....))))) , I see its Tm listed as 52.9

The sequence GACCGCGAAAGCGCCGTC ((((((....)))..))) showed Tm equal to 36.6

---

# assay.explanation: folding enthalpy; higher = less favourable; fluorescence melt of hairpins on a sequencing array, two-state fit
# condition: sodium 0.088 M
quantity: folding enthalpy (kcal/mol)
// units = kcal/mol; emit number, no label

Noted for GCTGGCGAAAGCCGCAGC ((((((....)))..))) : its folding enthalpy reads -12.9

For reference, reported folding enthalpy for GTACTCCGAAAGGACTAC (((.(((....))).))) stands at -14.1

folding enthalpy reading for GCCTAAGAAATTAGGC ((((((....)))))) : -28.8

GATCTGGCACCAGATC ((((((....)))))) yielded folding enthalpy of -41.3

// folding enthalpy lookup, sequence = GATCATGGAAACGTGATC (((((.(....).))))) , result: -31.7

Record GGACACCGAAAGGTTTCC (((.(((....))).))) . Reported folding enthalpy: -32.8

In plain terms, AGTGGGAAACCACT (((((....))))) has a documented folding enthalpy of -19.5

// folding enthalpy lookup, sequence = GATCGTGTGGACGATC ((((((....)))))) , result: -38

Recorded result, GTACAGAAATGTAC (((((....))))) , folding enthalpy: -20.2

Entry GACGCGGGAAACCACGTC ((((.((....)).)))) ; folding enthalpy = -40.9

Just so you know, measured folding enthalpy for GCACAGCGAAAGCACTGC (((..((....))..))) came out at -11.7

For GACCGCGAAAGCGAGGTC ((((((....)))..))) the sequence record lists folding enthalpy as -19.2

# folding enthalpy of GATCAGCCAACTGATC ((((((....)))))) = -33.8

According to the records, this sequence GATCCGACTCCGGATC ((((((....)))))) displays folding enthalpy of -44.3

Form field folding enthalpy, entry GTACAGGAAACTGTAC ((((((....)))))) : -41.6

Field folding enthalpy (entry GAGGCCGGAAACGACCTC ((((.((....)).)))) ) reads -44.9

Sure, the documented folding enthalpy for TGTACGAAAGTACA (((((....))))) is -14.6

In plain terms, AGAGAGAAATCTCT (((((....))))) has a documented folding enthalpy of -8.28

Given item GATCTAAGCTTAGATC ((((((....)))))) , the value recorded as its folding enthalpy is -53.5

Looking up GTTGGCCGAAAGGCAAC (((.(((....)))))) , I see its folding enthalpy listed as -16.8

Looking up GCCTGGCGAAAGCTATGC ((.(.((....)).).)) , I see its folding enthalpy listed as -12.5

Reported folding enthalpy for CATTGGAAACAATG (((((....))))) was -22.2

Measured folding enthalpy of GGTACAGGAAACTGTATC (.(((((....))))).) : -28.6

// folding enthalpy lookup, sequence = GCTATGCGAAAGCTAAGC (((..((....))..))) , result: -17.2

Recorded folding enthalpy (sequence GCCCTTGGAAACAAAGGC (((.(((....))).))) ): -28.2

For GGGTGAGGAAACTCACTC (.(((((....))))).) the sequence record lists folding enthalpy as -17.8

Briefly, folding enthalpy measured for GAGTTCGGAAACGAGCTC (((.(((....))).))) : -31.3

response.value for GTCTATCGAAAGATTGAC (((.(((....))).))) (field: folding enthalpy) = -35.1

// recorded folding enthalpy for GCATCAGGAAACTGATGC (((((((....))))))) : -46.9

Sure, the documented folding enthalpy for CGGGCACGGAAACGTCCG (((..(((....)))))) is -19.9
